- measurement-notes: Mouse hypercalcemia assay
- Type: in vivo
- experimental-parameters: no effect level: highest dose that did not cause hypercalcemia; oral gavage for 6 days, female DBF mice, serum ionized calcium
List of Mouse Hypercal values.
State the answer as a number, implicitly in µg/kg/day.

{"columns": ["compound", "value-unit", "Mouse Hypercal"],
 "data": [
  ["CCC(CC)(c1ccc(OCC(O)C(C)(C)C)c(C)c1)c1ccc2cc(C(=O)O)ccc2c1 (single isomer, unassigned)", "µg/kg/day", 300]
]}

IN: Looking for the measured Mouse Hypercal of CCC(Oc1ccc(C(CC)(CC)c2ccc3cc(C(=O)N(C)CC(=O)O)ccc3c2)cc1C)C(O)C(C)(C)C (centres unmarked) , can you help?
OUT: 300

IN: Which Mouse Hypercal reading was recorded for the compound CCC(Oc1ccc(C(CC)(CC)c2ccc3cc(C(=O)NCC(=O)O)ccc3c2)cc1C)C(O)C(C)(C)C (centres unmarked) ?
OUT: 100

----------
Catalogue of EC50 values
- assay-target: VDR (Homo sapiens)
- Construct: the receptor expression vector pGal4-VDR-LBD (10 ng); expressed in transfected cells; host or cells: Caco-2 cells
- Sequence (P11473 127-423 limits assumed): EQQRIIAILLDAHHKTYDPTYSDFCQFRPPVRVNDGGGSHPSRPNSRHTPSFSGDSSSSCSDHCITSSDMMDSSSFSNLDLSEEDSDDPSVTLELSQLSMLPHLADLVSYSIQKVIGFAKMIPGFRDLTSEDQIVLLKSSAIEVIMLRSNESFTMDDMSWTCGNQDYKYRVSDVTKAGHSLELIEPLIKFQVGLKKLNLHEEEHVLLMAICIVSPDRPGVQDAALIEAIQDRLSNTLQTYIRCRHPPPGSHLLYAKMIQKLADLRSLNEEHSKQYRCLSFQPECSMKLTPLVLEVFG
- measurement-notes: VDR CTF (Caco-2 cells) co-transfection assay
- Assay type: cell-based
- experimental-parameters: pGal4-VDR-LBD, luciferase reporter
Provide only the numeric value, understood in nM.

{"columns": ["molecule", "assay-target", "value-unit", "reported-value"],
 "data": [
  ["CCC(CC)(c1ccc(OCC(=O)C(C)(C)C)c(C)c1)c1ccc2ccc(C(=O)O)cc2c1", "VDR (Homo sapiens)", "nM", 714],
  ["CCC(CC)(c1ccc(OCC(O)C(C)(C)C)c(C)c1)c1ccc2cc(C(=O)O)ccc2c1 (single isomer, unassigned)", "VDR (Homo sapiens)", "nM", 466],
  ["CCC(CC)(c1ccc(OCC(=O)C(C)(C)C)c(C)c1)c1ccc2cc(C(=O)N(C)CC(=O)O)ccc2c1", "VDR (Homo sapiens)", "nM", 162],
  ["CCC(CC)(c1ccc(OCC(=O)C(C)(C)C)c(C)c1)c1ccc2cc(C(=O)O)ccc2c1", "VDR (Homo sapiens)", "nM", 194],
  ["CCC(CC)(c1ccc(OCC(=O)C(C)(C)C)c(C)c1)c1ccc2cc(C(=O)N(C)C)ccc2c1", "VDR (Homo sapiens)", "nM", 550]
]}

Moving on to another molecule below.
IN: Form field: reported EC50 of CCC(CC)(c1ccc(OCC(=O)C(C)(C)C)c(C)c1)c1ccc2cc(C(=O)NCC(=O)O)ccc2c1
OUT: 35

----------
# pIC50 per record follows
- System: KERtr cells (Human skin keratinocyte)
- measurement-notes: Keratinocyte proliferation assay
- Type: cell-based
- experimental-parameters: 72 hr, BrdU incorporation, read-out: Keranocyte Proliferation IC50
Please express pIC50 as -log10 of the molar concentration.

Some solved cases for reference:
{"columns": ["compound", "pIC50"],
 "data": [
  ["CCC(CC)(c1ccc(OCC(=O)C(C)(C)C)c(C)c1)c1ccc2cc(C(=O)N(C)CC(=O)O)ccc2c1 [Ex. 5]", 7.62],
  ["CCC(CC)(c1ccc(OCC(=O)C(C)(C)C)c(C)c1)c1ccc2cc(C(=O)O)ccc2c1 [Ex. 1]", 6.19],
  ["CCC(CC)(c1ccc(OCC(=O)C(C)(C)C)c(C)c1)c1ccc2cc(C(=O)NCC(=O)O)ccc2c1 [Ex. 3]", 8.70]
]}

Moving on to another compound below.
IN: Which pIC50 is reported for this compound? CCC(CC)(c1ccc(OCC(O)C(C)(C)C)c(C)c1)c1ccc2cc(C(=O)O)ccc2c1 (racemic) [Ex. 2]
OUT: 7.33

----------
- System: rat osteocalcin promoter
- measurement-notes: OCN (osteocalcin) promoter assay
- Assay type: cell-based
- experimental-parameters: Rattus norvegicus, 48 h, RG-15 (ROS 17/2.8) cells, 48 hr treatment, luciferase reporter
pEC50: −log10 of the molar value.
pEC50 vs 9: at or above is MET, below is NOT MET.

{"columns": ["compound", "qualitative-label"],
 "data": [
  ["CCC(CC)(c1ccc(OCC(=O)C(C)(C)C)c(C)c1)c1ccc2cc(C(=O)N(C)CC(=O)O)ccc2c1 [Ex. 5]", "MET"],
  ["CCC(CC)(c1ccc(OCC(=O)C(C)(C)C)c(C)c1)c1ccc2cc(C(=O)NCC(=O)O)ccc2c1 [Ex. 3]", "MET"],
  ["CCC(CC)(c1ccc(OCC(=O)C(C)(C)C)c(C)c1)c1ccc2cc(C(=O)N(C)C)ccc2c1 [Ex. 4]", "NOT MET"],
  ["CCC(CC)(c1ccc(OCC(=O)C(C)(C)C)c(C)c1)c1ccc2cc(C(=O)O)ccc2c1 [Ex. 1]", "NOT MET"]
]}

Continue with the next compound.
IN: Determine whether measured pEC50 meets or exceeds 9 for CCC(CC)(c1ccc(OCC(=O)C(C)(C)C)c(C)c1)c1ccc2ccc(C(=O)O)cc2c1 [Ex. 6]
OUT: NOT MET
